ASSAYED_TARGET: Phosphatidylinositol 4,5-bisphosphate 3-kinase catalytic subunit alpha isoform (Homo sapiens);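 further: values are mean percent inhibition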
STATED_CONDITIONS: at 1 µM
inhibition overview

RECORD_SMILES	inhibition (%)
CN(C)c1ccc2c(c1)/C(=C/Nc1ccc(S(N)(=O)=O)cc1)C(=O)N2	4.82
COc1cc(N2CCN(C(C)C)CC2)ccc1Nc1nc(Nc2ccc(F)cc2C(=O)NC[C@@H](O)CO)c2cc[nH]c2n1	2.69
Fc1ccc(-c2ncn(C3CCNCC3)c2-c2ccnc(Oc3ccc(F)c(F)c3)n2)cc1	3.41
C/C(Nc1ccc(S(N)(=O)=O)cc1)=C1/C(=O)Nc2ccccc21	1.42
C[C@@H](Oc1cc(-n2cnc3ccc(OCC4CCN(C)CC4)cc32)sc1C(N)=O)c1ccccc1Cl	27.3
